# METHOD DESCRIPTION: NCI Yeast Anticancer Drug Screen. Data for the cln2 rad14 strain (AID 165);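 further: 0% = growth equal to vehicle treated cultures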
# MEASUREMENT SETUP: S. cerevisiae cln2 rad14 strain, at 50.0 µM, stronger effect = higher value
The panel holds about 79,000 compounds, 15% with a hit somewhere; the sample as a whole holds those more often.
MEASURED QUANTITY: growth inhibition (%)
Give bare numbers, in %.

Study these solved cases before continuing.
[
  {
    "COMPOUND": "Oc1cccc(N2CCN(c3cccc(O)c3)CC2)c1",
    "growth inhibition (%)": 9.15
  },
  {
    "COMPOUND": "O=C(O)C1CCCCC1C(=O)Nc1cccc2ccccc12 (stereo not drawn)",
    "growth inhibition (%)": -7.95
  },
  {
    "COMPOUND": "NC(=O)Nc1ccc([N+](=O)[O-])cc1",
    "growth inhibition (%)": -51.6
  },
  {
    "COMPOUND": "NCCN=C(N)C(N)=NCCN",
    "growth inhibition (%)": -54.5
  },
  {
    "COMPOUND": "N#Cc1sc2nc3c(c(-c4ccccc4)c2c1N)CCCC3",
    "growth inhibition (%)": -8.4
  }
]

Give one value of growth inhibition per listed compound.
1. CC(=O)Nc1c(C)ccc([N+](=O)[O-])c1C
2. Cc1cc(Cc2ccc(N)c(C)c2)ccc1N
3. CCCCCCCCCCCCN1CCCN(CCCCCCCCCCCC)CC1
4. C/C(C/C(C)=N/O)=N/O
5. CON(C)c1nc(N)c(C#N)c(C#N)c1C#N
6. O=[N+]([O-])c1cc([N+](=O)[O-])c2ccccc2c1NS(=O)(=O)c1ccc(Br)cc1

Given back:
1: 5.95; 2: -52.9; 3: 96.7; 4: 0.45; 5: 13.4; 6: 0.7

* * *

Kindly supply the reported growth inhibition values for the records listed here.
# METHOD DESCRIPTION: NCI Yeast Anticancer Drug Screen. Data for the sgs1 mgt1 strain (AID 161);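 further: 0% = growth of cultures given vehicle only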
# MEASUREMENT SETUP: S. cerevisiae sgs1 mgt1 strain, at 50.0 µM, stronger effect = higher value
This is part of a sample that, as a whole, favours compounds with a hit. Of some 79,000 tested, about 15% had one in any assay.
Give bare numbers, in %.

// known answers, use as guide
[
  {
    "MOLECULE": "O=S1C=Cc2ccccc21 (configuration not stated)",
    "growth inhibition / %": 13.1
  },
  {
    "MOLECULE": "Cc1ccc(C(=O)N/N=C/c2c(O)ccc3ccccc23)cc1",
    "growth inhibition / %": 9.95
  },
  {
    "MOLECULE": "O=C1NN2CCN=C2c2ccccc21",
    "growth inhibition / %": -22.7
  },
  {
    "MOLECULE": "CN(C)C(=O)C1CCNCC1",
    "growth inhibition / %": -4.15
  },
  {
    "MOLECULE": "CCCC(C)(O)C(C)(C)C (configuration not stated)",
    "growth inhibition / %": 8
  },
  {
    "MOLECULE": "CCS(=O)(=O)c1ccc(NC(=O)OCc2ccccc2)cc1",
    "growth inhibition / %": 22.4
  },
  {
    "MOLECULE": "O=S(=O)([O-])Sn1c(-c2ccccc2)c[n+]2ccccc12",
    "growth inhibition / %": 13.9
  },
  {
    "MOLECULE": "COc1cc2c(cc1OC)C(CCN)NCC2 (configuration not stated)",
    "growth inhibition / %": -2.55
  }
]

Give growth inhibition for all molecules that follow.
1. Nc1ccc(Br)c(N)c1
2. O=c1[nH]c(-c2ccccc2)c(-c2ccccc2)nc1Cl
3. COC(NC(N)=O)C(=O)O (configuration not stated)

Given back:
1. -5.35
2. 6.5
3. -1.25

Batch lookup, growth inhibition per entry.
1. CCC1c2ccccc2[C@H]2C(c3ccccc3)=NN(c3ccccc3)[C@H]2N1CC (some centres not stated)
2. O=C(/C=C/c1ccc(O)cc1)c1ccc2c(c1)OCO2
3. CC1(C)C2CCC1(C)C(S)C2 (configuration not stated)
4. CCCCC(O)(CCCC)CC(C)C

Given back:
-0.7
25.8
-2.75
-2.4

// provenance: PubChem BioAssay (NCI)
